Data provenance: patent US20220119451A1

Could you please report measured IC50 for the items listed next?
- target.or.system: T1, mouse PD-L1 on 4T1 cancer cells (mouse, UniProt Q9EP73 19-290)
- T1 construct: whole, on cells; also called mouse cancer cell line 4T1
- T1 sequence (Q9EP73 19-290): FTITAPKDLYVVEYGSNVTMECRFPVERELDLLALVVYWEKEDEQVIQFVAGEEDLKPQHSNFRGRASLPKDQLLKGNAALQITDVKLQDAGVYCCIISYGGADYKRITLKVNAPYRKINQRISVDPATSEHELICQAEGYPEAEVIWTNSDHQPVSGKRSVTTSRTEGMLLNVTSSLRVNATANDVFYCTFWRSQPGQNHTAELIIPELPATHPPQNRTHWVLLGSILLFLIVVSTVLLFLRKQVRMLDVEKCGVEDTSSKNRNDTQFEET
- assay.method.text: blocking of mouse PD-1 binding to 4T1 cells
No end group written: not given here.
Answers are plain numbers, in nM.

| binder | IC50 [nM] |
| --- | --- |
| WHRSYYTWNLNT (not fully specified, 12-mer from phage display) [CLP002 peptide] | 2440 |
| DYHDPSLPTLRK (not fully specified, 12-mer from phage display) [CLP004 peptide] | 730 |
| HYPFRPHANQAS (not fully specified, 12-mer from phage display) [CLP001 peptide] | 910 |

The record that follows has no IC50 shown yet.
Ask | Bench note: what IC50 did WHFSYNWRWLPP (not fully specified, 12-mer from phage display) [CLP003 peptide] show?
Reply | 1000
